Compiled from multiple publications: pKi readings for Beta-secretase 1 (Homo sapiens, UniProt P56817).
pKi: −log10 of the molar value.
PARAMETER MEASURED: pKi

CN=[S@]1(=O)C[C@@](C)(c2cc(Nc3ccnc4nc(OC)cnc34)ccc2F)NC(=N)C1(C)C
5.94
CN1C(=N)N[C@](C)(c2sc(-c3ccc(-c4ccccc4)[nH]3)cc2Cl)CS1(=O)=O
8.68
CCS(=O)(=O)C1(C)CCC(CF)(c2cc(NC(=O)c3cc4c(cn3)OC(F)(F)CO4)ccc2F)N=C1N (stereo not shown)
9.92
CN1C(=N)N[C@]2(c3cc(NC(=O)c4ccc(Cl)cn4)ccc3F)COC[C@@H]2S1(=O)=O
6.71
Cc1nnc(-c2cccc(-c3cc(F)c([C@]4(C)CS(=O)(=O)N(C)C(=N)N4)s3)c2)o1
6.63

(A) Cc1ncc2c(n1)C[C@@](C)(c1sc(-c3cccc(-c4ncno4)c3)cc1Cl)NC2=N
(B) CC1(C)C(=N)N[C@@]2(CCOc3ccc(NC(=O)c4ncc(C(F)(F)F)cn4)cc32)CS1(=O)=O
Query: Please compare: A and B . Report which one has the smaller pKi value. Return value: the label identifying the chosen record.
Result: A
(A: 6.32, B: 6.97)
